Target: NA transporter (Rattus norvegicus, UniProt Q63380)
Construct: from tissue; host or cells: rat hypothalamus synaptosomes (P2 fraction)
Sequence (Q63380 1-617): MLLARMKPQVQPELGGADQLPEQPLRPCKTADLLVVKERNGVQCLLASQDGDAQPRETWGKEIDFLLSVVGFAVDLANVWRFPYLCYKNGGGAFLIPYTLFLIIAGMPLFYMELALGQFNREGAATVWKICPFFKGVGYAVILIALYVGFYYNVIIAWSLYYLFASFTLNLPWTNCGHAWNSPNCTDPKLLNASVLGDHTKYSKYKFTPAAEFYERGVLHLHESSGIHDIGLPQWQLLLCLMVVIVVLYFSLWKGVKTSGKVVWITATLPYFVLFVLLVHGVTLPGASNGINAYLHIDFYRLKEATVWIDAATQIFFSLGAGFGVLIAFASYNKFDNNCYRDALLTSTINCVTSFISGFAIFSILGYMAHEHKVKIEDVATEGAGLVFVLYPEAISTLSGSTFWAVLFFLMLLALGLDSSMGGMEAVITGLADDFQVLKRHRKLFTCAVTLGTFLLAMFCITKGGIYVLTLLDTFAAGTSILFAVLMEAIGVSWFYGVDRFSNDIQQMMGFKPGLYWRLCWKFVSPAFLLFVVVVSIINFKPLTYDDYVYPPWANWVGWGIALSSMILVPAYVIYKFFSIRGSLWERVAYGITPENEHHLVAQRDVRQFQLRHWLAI
Experiment: Noradrenalin uptake inhibition in rat brain synaptosomes (hypothalamus)
Format: biochemical
observation type: inhibition at 10 µM (%)
Could you give me the number in %? Just the number is fine.

**Q:** Determine its reported inhibition at 10 µM: O=C(Nc1ncc2c(n1)CCN(C(=O)c1ccc(Cl)c(Cl)c1)C2)c1ccccc1F
**A:** 67

**Q:** Determine its reported inhibition at 10 µM: O=C(Nc1ncc2c(n1)CCC(NS(=O)(=O)c1cc(Cl)sc1Cl)C2)c1cccs1 (stereo not shown)
**A:** 34

**Q:** Determine its reported inhibition at 10 µM: O=C(Nc1ncc2c(n1)CCN(C(=O)CCCCc1ccccc1)C2)c1ccccc1
**A:** 73

**Q:** Determine its reported inhibition at 10 µM: CCc1ccc(C(=O)Nc2ncc3c(n2)CCN(C(=O)c2ccc(-n4cccn4)cc2)C3)cc1
**A:** 43

Ref: patent US20090176811A1
